# System: A549
# test: MTS cell number assay (CellTiter 96), NSCLC cells
# Type: cell-based
# condition_parameters: Homo sapiens, 1 mM, 72 hours, MTS method, read-out: Biodata extra A549, cell numbers as percentage of vehicle treated controls
Structures can show the parent of a compound that is named as a salt.
Recorded measurements of viability at 1000 µM, one per entry

compound | viability at 1000 µM (%)
N=C(NC(=N)N1CCOCC1)N1CCOCC1 [JD003, hydrochloride] | 98
CON(C)C(=N)NC(=N)N [JD001, hydrochloride] | 62.6
N=C(NC(=N)N1CCCC1)N1CCCCC1 [JD005, hydrochloride] | 32.4
CN1CCN(C(=N)NC(=N)N2CCN(C)CC2)CC1 [JD004] | 74.3
N=C(NC(=N)N1CCCC1)N1CCCC1 [JD006, hydrochloride] | 59.7
N=C(NC(=N)N1CCCCC1)N1CCCCC1 [JD002, hydrochloride] | 4.6
CN(C)C(=N)NC(=N)N1CCOCC1 [JD007, hydrochloride] | 82.3
CN(C)C(=N)NC(=N)N [Metformin (000), 1,1-dimethyl-biguanide hydrochloride, reference compound] | 72.2

* * *

# Tested on: HCC38
# test: MTS cell number assay (CellTiter 96), TNBC cells
# Type: cell-based
# condition_parameters: 1 mM, 72 hours, MTS method
Counter-ions that a name gives are not always drawn.
recorded_endpoint: Biodata TNBC HCC38, cell numbers as percentage of vehicle treated controls

molecule | recorded_measurement
CC1CCN(C(=N)NC(=N)N)CC1 [JD009, hydrochloride] | 0 percentage of vehicle treated controls

Values compiled from patent US9862693B2.
